Test: Antiproliferative activity against CHO cells assessed as cell growth inhibition after 72 hrs by cell titer-glo assay
Type: cell-based, Cricetulus griseus
Conditions: chinese hamster
Endpoint: GI50 at 72 h

Cc1cc(NC(=O)Nc2ccc(-c3ccnc4[nH]nc(C)c34)cc2)ccc1N1CCOCC1: > 10 µM

Let us examine a further case.
Per the record, Cc1ccc(NC(=O)c2ccc(CN3CCN(C)CC3)cc2)cc1Nc1nccc(-c2cccnc2)n1 has GI50 at 72 h of > 10 µM

====

Experiment: AUC (0 to t) in Sprague-Dawley rat at 100 mg/kg, ip up to 24 hrs post dose by LC/MS/MS analysis
Format: ADME, organism-based
Parameters: dose 100 mg/kg, time < 24 hr, route intraperitoneal
Conditions: in vivo
Endpoint: AUC(0-t) at 24 h
Express your answer as a number followed by its unit.

Per the record, Cc1cc(NC(=O)Nc2ccc(-c3ccnc4[nH]nc(C)c34)cc2)ccc1N1CCOCC1 has AUC(0-t) at 24 h of 4.25 µg·h/mL

====

Experiment: Antiproliferative activity against CHL cells assessed as cell growth inhibition after 72 hrs by cell titer-glo assay
Type: cell-based, Cricetulus griseus
Conditions: chinese hamster
Endpoint: GI50 at 72 h (µM)
Number in µM, nothing else.

Per the record, Cc1cc(NC(=O)Nc2ccc(-c3ccnc4[nH]nc(C)c34)cc2)ccc1N1CCOCC1 has GI50 at 72 h of 7.04

====

Assay: MRT (0 to t) in Sprague-Dawley rat at 2 mg/kg, iv up to 24 hrs post dose by LC/MS/MS analysis
Type: ADME, organism-based
Details: in vivo
Endpoint: MRT last at 24 h (h)
Number in h, nothing else.

Per the record, Cc1cc(NC(=O)Nc2ccc(-c3ccnc4[nH]nc(C)c34)cc2)ccc1N1CCOCC1 has MRT last at 24 h of 1.13

====

Target: Platelet-derived growth factor receptor alpha (Homo sapiens, UniProt P16234)
Sequence (P16234 whole entry): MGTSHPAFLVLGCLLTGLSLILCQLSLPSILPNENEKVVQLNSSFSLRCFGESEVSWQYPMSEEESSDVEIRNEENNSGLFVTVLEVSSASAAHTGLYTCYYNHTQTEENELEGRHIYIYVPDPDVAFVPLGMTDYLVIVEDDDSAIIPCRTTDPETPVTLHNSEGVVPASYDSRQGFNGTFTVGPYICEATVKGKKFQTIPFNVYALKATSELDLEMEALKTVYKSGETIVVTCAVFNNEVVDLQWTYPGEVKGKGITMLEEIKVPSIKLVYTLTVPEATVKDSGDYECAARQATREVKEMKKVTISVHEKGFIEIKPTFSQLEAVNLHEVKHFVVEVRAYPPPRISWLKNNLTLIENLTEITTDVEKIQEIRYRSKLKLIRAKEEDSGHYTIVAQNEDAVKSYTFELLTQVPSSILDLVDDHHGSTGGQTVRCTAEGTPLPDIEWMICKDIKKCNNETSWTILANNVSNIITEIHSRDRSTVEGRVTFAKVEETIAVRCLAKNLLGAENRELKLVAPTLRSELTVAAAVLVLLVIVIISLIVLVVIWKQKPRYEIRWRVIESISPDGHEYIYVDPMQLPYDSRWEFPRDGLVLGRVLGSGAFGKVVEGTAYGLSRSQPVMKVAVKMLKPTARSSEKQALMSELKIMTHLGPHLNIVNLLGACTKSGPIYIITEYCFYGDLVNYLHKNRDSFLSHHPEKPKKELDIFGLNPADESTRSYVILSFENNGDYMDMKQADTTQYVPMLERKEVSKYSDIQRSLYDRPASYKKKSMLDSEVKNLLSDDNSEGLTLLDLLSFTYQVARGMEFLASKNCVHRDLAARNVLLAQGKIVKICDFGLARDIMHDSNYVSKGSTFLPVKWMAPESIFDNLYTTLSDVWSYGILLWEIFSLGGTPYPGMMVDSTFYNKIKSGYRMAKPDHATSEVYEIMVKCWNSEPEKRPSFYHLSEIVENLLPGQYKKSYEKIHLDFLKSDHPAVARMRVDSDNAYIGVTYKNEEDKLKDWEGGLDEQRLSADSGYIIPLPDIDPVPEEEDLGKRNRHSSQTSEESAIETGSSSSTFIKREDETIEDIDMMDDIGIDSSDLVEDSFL
Threshold 100 nM. IC50 below it: condition met. IC50 at it or above: condition not met.

CCc1cccc(NC(=O)Nc2ccc(-c3ccnc4[nH]nc(CO)c34)cc2)c1: condition met
Cc1n[nH]c2nccc(-c3ccc(NC(=O)NC4Cc5ccccc5C4)cc3)c12: condition met
Cc1cc(NC(=O)Nc2ccc(-c3ccnc4[nH]nc(C)c34)cc2)ccc1N1CCN(C)CC1: condition not met
Cc1n[nH]c2nccc(-c3ccc(NC(=S)Nc4cccc(C(F)(F)F)c4)cc3)c12: condition not met
Cc1n[nH]c2nccc(-c3ccc(NC(=O)Nc4cccc(C#N)c4)cc3)c12: condition not met
Cc1n[nH]c2nccc(-c3ccc(NC(=O)NCCc4ccccc4)cc3)c12: condition met
Cc1n[nH]c2nccc(-c3ccc(NC(=O)Nc4cccc(N(C)C)c4)cc3)c12: condition met
CCN(CC)c1ccc(NC(=O)Nc2ccc(-c3ccnc4[nH]nc(C)c34)cc2)cc1: condition not met

## Input Say whether its IC50 is strictly beneath 100 nM. Entry: Cc1n[nH]c2nccc(-c3ccc(NC(=O)Nc4ccccc4N4CCN(C)CC4)cc3)c12
## Output condition not met

## Input Say whether its IC50 is strictly beneath 100 nM. Entry: Cc1ccc(NC(=O)Nc2ccc(-c3ccnc4[nH]nc(C)c34)cc2)cc1
## Output condition met

## Input Say whether its IC50 is strictly beneath 100 nM. Entry: Cc1n[nH]c2nccc(-c3ccc(NC(=O)Nc4ccn[nH]4)cc3)c12
## Output condition not met

## Input Say whether its IC50 is strictly beneath 100 nM. Entry: Cc1cccc(NC(=O)Nc2ccc(-c3ccnc4[nH]nc(CO)c34)cc2)c1
## Output condition met

====

Platelet-derived growth factor receptor alpha (Homo sapiens), P16234 [T674I] GI50 data
Sequence (P16234 whole entry T674I): as the sequence (P16234 whole entry) above, with T674I counted along it
Number in nM, nothing else.

Past entries and their recorded results:
Cc1n[nH]c2nccc(-c3ccc(NC(=O)Nc4cnc5ccccc5c4)cc3)c12: 1510
Cc1ccc(F)c(NC(=O)Nc2ccc(-c3cccc4[nH]nc(N)c34)cc2)c1 [LINIFANIB]: 104
Cc1cccc(NC(=O)Nc2ccc(-c3ccnc4[nH]nc(C)c34)cc2)c1: 1170

Item CCCCCCNC(=O)Nc1ccc(-c2ccnc3[nH]nc(C)c23)cc1 ; assay system Platelet-derived growth factor receptor alpha (Homo sapiens), P16234 [T674I]; GI50 reported as 3180

Item Cc1cccc(NC(=O)Nc2ccc(-c3ccnc4[nH]nc(CO)c34)cc2)c1 ; assay system Platelet-derived growth factor receptor alpha (Homo sapiens), P16234 [T674I]; GI50 reported as 5000

Item Cc1cc(NC(=O)Nc2ccc(-c3ccnc4[nH]nc(C)c34)cc2)ccc1N1CCOCC1 ; assay system Platelet-derived growth factor receptor alpha (Homo sapiens), P16234 [T674I]; GI50 reported as 135

Item Cc1n[nH]c2nccc(-c3ccc(NC(=O)NCCCc4ccccc4)cc3)c12 ; assay system Platelet-derived growth factor receptor alpha (Homo sapiens), P16234 [T674I]; GI50 reported as 2050

====

Molecular target: Vascular endothelial growth factor receptor 3 (Homo sapiens)
Sequence (P35916 whole entry, the tested form may be a part): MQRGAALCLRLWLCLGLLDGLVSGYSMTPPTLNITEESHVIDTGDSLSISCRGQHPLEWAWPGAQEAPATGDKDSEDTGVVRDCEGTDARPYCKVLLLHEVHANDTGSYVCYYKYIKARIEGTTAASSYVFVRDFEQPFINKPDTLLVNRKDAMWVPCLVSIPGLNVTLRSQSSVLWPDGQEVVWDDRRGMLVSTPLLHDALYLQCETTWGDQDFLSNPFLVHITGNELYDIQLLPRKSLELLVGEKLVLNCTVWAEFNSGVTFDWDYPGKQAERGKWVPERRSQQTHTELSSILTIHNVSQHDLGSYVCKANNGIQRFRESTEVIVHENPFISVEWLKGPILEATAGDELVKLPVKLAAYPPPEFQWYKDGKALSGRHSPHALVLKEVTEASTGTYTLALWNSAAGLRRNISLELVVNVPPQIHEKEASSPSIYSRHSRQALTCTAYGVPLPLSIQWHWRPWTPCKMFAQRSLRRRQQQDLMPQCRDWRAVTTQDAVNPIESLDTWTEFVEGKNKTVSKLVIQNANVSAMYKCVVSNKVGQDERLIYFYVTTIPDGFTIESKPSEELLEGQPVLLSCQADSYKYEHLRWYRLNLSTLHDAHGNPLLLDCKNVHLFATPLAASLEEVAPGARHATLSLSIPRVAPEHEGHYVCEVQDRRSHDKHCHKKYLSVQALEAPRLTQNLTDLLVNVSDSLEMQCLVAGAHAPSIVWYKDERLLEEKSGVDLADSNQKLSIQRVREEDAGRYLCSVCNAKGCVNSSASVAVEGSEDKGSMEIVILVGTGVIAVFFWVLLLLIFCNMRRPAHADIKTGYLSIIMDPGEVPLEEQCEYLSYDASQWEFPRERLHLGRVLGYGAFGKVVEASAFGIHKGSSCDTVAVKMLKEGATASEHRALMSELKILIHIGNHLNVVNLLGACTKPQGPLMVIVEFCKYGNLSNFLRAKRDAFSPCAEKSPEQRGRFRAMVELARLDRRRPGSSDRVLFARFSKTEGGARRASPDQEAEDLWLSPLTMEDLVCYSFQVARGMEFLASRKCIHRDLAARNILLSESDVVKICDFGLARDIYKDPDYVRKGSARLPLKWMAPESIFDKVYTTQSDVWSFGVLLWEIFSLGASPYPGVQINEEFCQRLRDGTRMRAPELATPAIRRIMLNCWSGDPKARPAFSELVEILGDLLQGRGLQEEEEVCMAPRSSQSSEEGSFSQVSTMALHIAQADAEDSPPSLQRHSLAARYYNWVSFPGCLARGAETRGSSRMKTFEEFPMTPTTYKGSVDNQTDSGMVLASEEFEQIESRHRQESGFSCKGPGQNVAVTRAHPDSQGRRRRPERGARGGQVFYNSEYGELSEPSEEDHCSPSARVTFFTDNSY
Assay: Inhibition of human GST-tagged FLT4 (800 to 1297 residues) expressed in baculovirus by ELISA
Endpoint: pIC50
Conceptually, pIC50 converts a concentration in mol/L into minus its log10.

Per the record, Cc1cc(NC(=O)Nc2ccc(-c3ccnc4[nH]nc(C)c34)cc2)ccc1N1CCOCC1 has pIC50 of 7.14

====

Molecular target: Vascular endothelial growth factor receptor 2 (Homo sapiens)
Reported IC50 values are given for each entry in this list.
Number in µM, nothing else.

Cc1cc(NC(=O)Nc2ccc(-c3ccnc4[nH]nc(C)c34)cc2)ccc1N1CCOCC1: 2.28
Cc1cc(N2CCN(C)CC2)ccc1NC(=O)Nc1ccc(-c2ccnc3[nH]nc(C)c23)cc1: 6.82
Cc1n[nH]c2nccc(-c3ccc(NC(=O)NC4CCCC4)cc3)c12: 6.23
CCc1cccc(NC(=O)Nc2ccc(-c3ccnc4[nH]nc(CO)c34)cc2)c1: 3.36
Cc1n[nH]c2nccc(-c3ccc(NC(=O)Nc4cnc5ccccc5c4)cc3)c12: 1.84

Per the record, Cc1cccc(NC(=O)Nc2ccc(-c3cc(O)nc4[nH]nc(C)c34)cc2)c1 has IC50 of 1.22

Per the record, Cc1ccc(F)c(NC(=O)Nc2ccc(-c3ccnc4[nH]nc(C)c34)cc2)c1 has IC50 of 4.29

Per the record, Cc1n[nH]c2nccc(-c3ccc(NC(=O)Nc4ccccc4N4CCN(C)CC4)cc3)c12 has IC50 of 4.16

====

Assay: AUC (0 to t) in Sprague-Dawley rat at 2 mg/kg, iv up to 24 hrs post dose by LC/MS/MS analysis
Assay type: ADME, organism-based
Design: dose 2 mg/kg, time < 24 hr, route intravenous
Details: in vivo
Endpoint: AUC(0-t) at 24 h (ng·h/mL)
Number in ng·h/mL, nothing else.

Per the record, Cc1cc(NC(=O)Nc2ccc(-c3ccnc4[nH]nc(C)c34)cc2)ccc1N1CCOCC1 has AUC(0-t) at 24 h of 2240

====

Vascular endothelial growth factor receptor 2 (Homo sapiens, UniProt P35968) log10 IC50 data
Sequence (P35968 whole entry): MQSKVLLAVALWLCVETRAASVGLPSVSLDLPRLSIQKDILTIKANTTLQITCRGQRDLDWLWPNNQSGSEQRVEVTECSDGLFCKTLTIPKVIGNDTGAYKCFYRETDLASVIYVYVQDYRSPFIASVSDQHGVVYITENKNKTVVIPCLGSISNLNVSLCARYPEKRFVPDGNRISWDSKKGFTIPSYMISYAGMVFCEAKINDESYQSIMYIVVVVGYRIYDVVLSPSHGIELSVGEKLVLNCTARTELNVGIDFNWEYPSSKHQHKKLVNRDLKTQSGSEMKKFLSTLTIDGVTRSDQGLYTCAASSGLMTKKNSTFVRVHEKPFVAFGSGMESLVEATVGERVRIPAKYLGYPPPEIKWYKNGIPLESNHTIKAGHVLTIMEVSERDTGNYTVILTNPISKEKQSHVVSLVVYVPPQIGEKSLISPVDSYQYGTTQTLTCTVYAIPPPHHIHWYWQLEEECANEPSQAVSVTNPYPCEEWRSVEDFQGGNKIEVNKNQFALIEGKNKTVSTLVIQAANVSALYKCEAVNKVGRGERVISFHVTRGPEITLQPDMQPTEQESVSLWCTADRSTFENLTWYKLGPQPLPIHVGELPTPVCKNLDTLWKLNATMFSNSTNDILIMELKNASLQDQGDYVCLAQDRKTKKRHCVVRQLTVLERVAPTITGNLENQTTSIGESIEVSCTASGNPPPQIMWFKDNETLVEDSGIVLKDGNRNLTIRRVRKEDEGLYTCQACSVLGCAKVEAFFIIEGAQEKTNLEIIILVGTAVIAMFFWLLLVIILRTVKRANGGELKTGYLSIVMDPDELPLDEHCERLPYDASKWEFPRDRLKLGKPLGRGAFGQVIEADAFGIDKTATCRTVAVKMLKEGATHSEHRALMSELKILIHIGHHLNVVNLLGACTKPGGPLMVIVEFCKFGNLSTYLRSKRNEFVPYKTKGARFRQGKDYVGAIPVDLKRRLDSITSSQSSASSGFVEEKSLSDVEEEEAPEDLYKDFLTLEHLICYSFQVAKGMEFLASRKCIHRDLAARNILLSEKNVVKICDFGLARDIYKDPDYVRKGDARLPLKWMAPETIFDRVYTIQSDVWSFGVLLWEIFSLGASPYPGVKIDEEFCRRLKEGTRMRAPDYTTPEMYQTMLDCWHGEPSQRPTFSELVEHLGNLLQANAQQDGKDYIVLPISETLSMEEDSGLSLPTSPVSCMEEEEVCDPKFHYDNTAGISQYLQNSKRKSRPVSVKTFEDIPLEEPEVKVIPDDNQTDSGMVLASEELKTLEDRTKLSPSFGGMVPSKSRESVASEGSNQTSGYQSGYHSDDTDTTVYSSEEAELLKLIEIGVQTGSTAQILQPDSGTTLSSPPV
Each number you see is log10 of IC50, and the unit inside the log is µM.

Past entries and their recorded results:
Cc1ccc(NC(=O)Nc2ccc(-c3ccnc4[nH]nc(C)c34)cc2)cc1: 0.75
Cc1n[nH]c2nccc(-c3ccc(NC(=O)Nc4cccc(F)c4)cc3)c12: 0.79
Cc1ccccc1NC(=O)Nc1ccc(-c2ccnc3[nH]nc(C)c23)cc1: 0.64

Per the record, CCCCCCNC(=O)Nc1ccc(-c2ccnc3[nH]nc(C)c23)cc1 has log10 IC50 of 1.02

Per the record, Cc1n[nH]c2nccc(-c3ccc(NC(=O)Nc4cccc(C(F)(F)F)c4)cc3)c12 has log10 IC50 of 0.28

Per the record, Cc1n[nH]c2nccc(-c3ccc(NC(=O)NCC(C)C)cc3)c12 has log10 IC50 of 0.94

Per the record, Cc1n[nH]c2nccc(-c3ccc(NC(=O)Nc4cccc(N(C)C)c4)cc3)c12 has log10 IC50 of 0.84

====

Biological target: Mast/stem cell growth factor receptor Kit (Homo sapiens)
Sequence (P10721 whole entry): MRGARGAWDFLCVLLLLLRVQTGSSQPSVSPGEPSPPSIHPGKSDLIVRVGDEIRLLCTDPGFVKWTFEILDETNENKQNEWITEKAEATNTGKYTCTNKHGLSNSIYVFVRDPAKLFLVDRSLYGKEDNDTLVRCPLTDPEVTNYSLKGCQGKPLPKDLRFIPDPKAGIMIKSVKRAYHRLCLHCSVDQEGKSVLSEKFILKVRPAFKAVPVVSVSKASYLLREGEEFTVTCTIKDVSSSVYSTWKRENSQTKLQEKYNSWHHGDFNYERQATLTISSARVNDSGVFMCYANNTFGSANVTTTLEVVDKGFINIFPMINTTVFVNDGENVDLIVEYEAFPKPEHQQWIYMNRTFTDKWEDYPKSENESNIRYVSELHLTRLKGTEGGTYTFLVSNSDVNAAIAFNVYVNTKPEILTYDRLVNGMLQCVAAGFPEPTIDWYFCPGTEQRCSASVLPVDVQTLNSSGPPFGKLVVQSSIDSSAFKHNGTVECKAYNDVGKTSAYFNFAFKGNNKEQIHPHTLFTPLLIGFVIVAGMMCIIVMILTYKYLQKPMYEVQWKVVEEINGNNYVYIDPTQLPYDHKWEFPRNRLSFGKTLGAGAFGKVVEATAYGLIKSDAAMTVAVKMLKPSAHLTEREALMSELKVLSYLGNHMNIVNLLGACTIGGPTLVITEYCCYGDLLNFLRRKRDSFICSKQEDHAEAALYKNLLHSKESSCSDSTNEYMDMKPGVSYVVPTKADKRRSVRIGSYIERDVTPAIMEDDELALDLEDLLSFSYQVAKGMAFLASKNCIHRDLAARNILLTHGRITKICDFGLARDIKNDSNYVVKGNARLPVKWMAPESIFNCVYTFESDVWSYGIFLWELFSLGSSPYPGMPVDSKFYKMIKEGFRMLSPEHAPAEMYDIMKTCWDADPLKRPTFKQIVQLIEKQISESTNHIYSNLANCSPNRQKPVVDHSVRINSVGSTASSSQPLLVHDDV
Reported IC50 values are given for each entry in this list.
Number in µM, nothing else.

CCc1cccc(NC(=O)Nc2ccc(-c3ccnc4[nH]nc(C(F)(F)F)c34)cc2)c1: 6.77
Cc1cccc(NC(=O)Nc2ccc(-c3ccnc4[nH]nc(CO)c34)cc2)c1: 0.0024
Cc1ccc(N2CCN(C)CC2)c(NC(=O)Nc2ccc(-c3ccnc4[nH]nc(C)c34)cc2)c1: 1.95
CCCCCCNC(=O)Nc1ccc(-c2ccnc3[nH]nc(C)c23)cc1: 0.0014
Cc1ccccc1NC(=O)Nc1ccc(-c2ccnc3[nH]nc(C)c23)cc1: 10.9

Item CCNC(=O)Nc1ccc(-c2ccnc3[nH]nc(C)c23)cc1 ; assay system Mast/stem cell growth factor receptor Kit (Homo sapiens); IC50 reported as 38.7

Item Cc1n[nH]c2nccc(-c3ccc(NC(=O)NC4Cc5ccccc5C4)cc3)c12 ; assay system Mast/stem cell growth factor receptor Kit (Homo sapiens); IC50 reported as 0.0087

Item Cc1n[nH]c2nccc(-c3ccc(NC(=O)NCc4ccco4)cc3)c12 ; assay system Mast/stem cell growth factor receptor Kit (Homo sapiens); IC50 reported as 0.051
